Measurement Target: Pin1 (GST-Pin1) (Homo sapiens)
Sequence (Q13526 whole entry): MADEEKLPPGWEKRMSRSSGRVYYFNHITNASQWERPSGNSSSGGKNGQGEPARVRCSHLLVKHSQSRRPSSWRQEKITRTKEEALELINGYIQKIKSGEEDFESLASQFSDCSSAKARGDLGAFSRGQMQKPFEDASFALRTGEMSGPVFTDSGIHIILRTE
Protocol Notes: Fluorescence polarization (FP) assay, binding to Pin1
Assay Conditions: competition with fluorescein-labeled peptide probe; 12 hours pre-incubation at 4° C.; Kenakin Ki equation; read-out: Ki, μM (FP Assay)
Non-standard residues stand in square brackets, D forms with d. Residues, ends and D or L forms follow the SMILES beside them. *: point of attachment. 2Nal = N[C@@H](Cc1ccc2ccccc2c1)C(=O)O; NMeF = CN[C@@H](Cc1ccccc1)C(=O)O; β3hF = N[C@H](CC(=O)O)Cc1ccccc1; Cit = NC(=O)NCCC[C@H](N)C(=O)O; Pip = O=C(O)[C@@H]1CCCCN1; Acryloyl = C=CC(=O)*; NHtBu = CC(C)(C)N*; ClAc = O=C(CCl)*
Measure: Ki

Molecule	Observed
NC(=O)[C@H](Cc1c[nH]c2ccccc12)NC(=O)[C@H](Cc1ccc2ccccc2c1)NC(=O)[C@@H]1CCCCN1C(=O)[C@H](CCC(=O)O)NC(=O)CCl [Compound 2-13] (ClAc-E[Pip][2Nal]W-NH2)	0.13 µM
C=CC(=O)N[C@@H](CCC(=O)O)C(=O)N1CCCC[C@H]1C(=O)N[C@@H](Cc1ccc2ccccc2c1)C(=O)N[C@@H](CCC(N)=O)C(N)=O [Compound 2b-1] (Acryloyl-E[Pip][2Nal]Q-NH2)	> 10 µM
CCOC(=O)[C@H](CCCNC(N)=O)NC(=O)[C@H](Cc1c[nH]c2ccccc12)NC(=O)[C@@H]1CCCCN1C(=O)[C@H](Cc1ccccc1)N(C)C(C)=O [Compound 18-1] (Ac-[NMeF][Pip]W[Cit]-OEt)	1.9 µM
CC(C)(C)NC(=O)[C@H](CCCNC(N)=O)NC(=O)[C@H](Cc1c[nH]c2ccccc12)NC(=O)[C@@H]1CCCCN1C(=O)[C@H](Cc1ccccc1)NC(=O)CCl [Compound 11-31] (ClAc-F[Pip]W[Cit]-NHtBu)	0.023 µM

For the next question, use this molecule.
Inquiry: Determine from records and report Ki for N=C(N)NCCC[C@H](NC(=O)C[C@H](Cc1ccccc1)NC(=O)[C@@H]1CCCCN1C(=O)[C@H](CCC(=O)O)NC(=O)CCl)C(N)=O [Compound 2b-15] (ClAc-E[Pip][β3hF]R-NH2)
Reply text: > 10 µM

Origin of the recorded values: patent US20210238225A1
